assay target: b-Raf (V600E) (Homo sapiens (Human), UniProt P15056, V600E)
Sequence (P15056 whole entry V600E): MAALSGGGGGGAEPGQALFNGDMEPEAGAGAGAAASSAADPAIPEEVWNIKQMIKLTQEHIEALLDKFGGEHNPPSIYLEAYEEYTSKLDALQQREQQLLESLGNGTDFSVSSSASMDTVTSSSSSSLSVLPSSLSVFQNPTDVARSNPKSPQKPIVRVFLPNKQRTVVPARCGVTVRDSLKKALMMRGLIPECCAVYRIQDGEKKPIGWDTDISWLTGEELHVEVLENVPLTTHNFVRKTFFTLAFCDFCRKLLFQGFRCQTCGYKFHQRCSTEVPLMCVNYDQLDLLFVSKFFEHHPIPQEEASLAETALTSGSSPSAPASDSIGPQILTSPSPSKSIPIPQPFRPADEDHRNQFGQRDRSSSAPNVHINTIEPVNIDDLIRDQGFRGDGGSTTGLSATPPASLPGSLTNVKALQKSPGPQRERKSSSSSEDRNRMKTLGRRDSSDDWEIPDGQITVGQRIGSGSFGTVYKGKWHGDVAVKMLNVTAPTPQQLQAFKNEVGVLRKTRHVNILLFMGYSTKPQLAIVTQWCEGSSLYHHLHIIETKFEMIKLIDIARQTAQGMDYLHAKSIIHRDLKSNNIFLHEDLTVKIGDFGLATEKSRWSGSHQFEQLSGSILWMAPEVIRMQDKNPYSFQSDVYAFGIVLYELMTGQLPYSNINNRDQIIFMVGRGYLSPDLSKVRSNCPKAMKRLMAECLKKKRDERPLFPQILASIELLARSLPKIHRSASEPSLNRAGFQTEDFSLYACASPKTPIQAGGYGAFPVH
measurement context: read-out: b-Raf IC-50; AlphaScreen, 60 min pre-incubation, reaction 3 hours at room temperature
readout name: pIC50
// field semantics: pIC50 = negative decimal log of concentration (mol/L)

Guide cases for pIC50, answers given:
molecule	pIC50
Cc1ccc(NC(=O)c2cccc(C(C)(C)S(C)(=O)=O)c2)cc1-c1cc(N2CCOCC2)nc(N2CC(O)C2)c1	7.73
Cc1ncc(NC(=O)c2cc(C(F)(F)F)ccn2)cc1-c1cc(N2CCOCC2)c2nccn2n1	8.89
Cc1ncc(NC(=O)c2cc(C3CC3)on2)cc1-c1cc(N2CCOCC2)nc(N2CC(O)C2)c1	8.18
CCC(F)(F)c1cc(C(=O)Nc2ccc(C)c(-c3cc(N4CCOCC4)c(S(C)(=O)=O)nn3)c2)ccn1	8.67
Cc1ccc(NC(=O)c2cncc(C(F)(F)F)c2)cc1-c1cnc(OCCO)c(N2CCOCC2)c1	8.87
Cc1ncc(NC(=O)c2ccnc(C3CC3)c2)cc1-c1cnc(OC2CC3(COC3)C2)c(N2CCOCC2)c1	8.87
Cc1ncc(NC(=O)c2cccc(C(F)(F)F)c2)cc1-c1cc(N2CCOCC2)c2nccn2c1 [Example 884]	7.71
Cc1ccc(NC(=O)c2ccnc(C(C)(C)C#N)c2)cc1-c1cc(NC[C@@H](C)O)nc(N2CCOCC2)n1	7.89
Cc1ccc(NC(=O)c2ccnc(C(C)(C)C#N)c2)cc1-c1cc(N2CCOCC2)nc(N2CCOCC2)c1	8.88
Cc1ccc(NC(=O)c2ccnc(C(F)(F)F)c2)cc1-c1cnc(OCCO)c(N2CCOCC2)c1	8.76

Exercise: I am curious: what pIC50 value has been reported for `Cc1ccc(NC(=O)c2cnnc(C(F)(F)F)c2)cc1-c1cc(NCCO)nc(N2CCOCC2)c1F` ?
Solution: 8.01

Exercise: Value lookup for pIC50; key = `Cc1ncc(NC(=O)c2ccnc(C(F)(F)F)c2)cc1-c1cc(NCCO)nc(N2CCOC[C@H]2C)c1`
Solution: 7.87

Exercise: Bench note: what pIC50 did Cc1ncc(NC(=O)c2ccnc(C3CC3)c2)cc1-c1cc(C2COCCO2)nc(N2CCOCC2)c1 (stereo not drawn) show?
Solution: 8.52
